Data origin, for the record: patent US10987344B2

experiment: Solubility of Lenalidomide modifications: saturated solutions in three media, HPLC analysis; type: physicochemical; details: phosphate buffer, pH 6.8, aqueous buffer, thermodynamic from solid, Phosphate buffer, pH 6.8; read-out: Solubility
attribute.measured: Solubility (µg/mL)

{"compound": "Nc1cccc2c1CN(C1CCC(=O)NC1=O)C2=O (racemic) [Base form B]", "unit.symbol": "µg/mL", "Solubility": 330}
{"compound": "Nc1cccc2c1CN(C1CCC(=O)NC1=O)C2=O (centres unmarked) [DMSO solvate]", "unit.symbol": "µg/mL", "Solubility": 350}

###

test: Solubility of Lenalidomide modifications: saturated solutions in three media, HPLC analysis; format: physicochemical; settings: 0.1M hydrochloric acid, pH 1, simulated gastric fluid, thermodynamic from solid, 0.1M HCl, pH 1.0; read-out: Solubility
attribute.measured: Solubility (µg/mL)

I = Nc1cccc2c1CN(C1CCC(=O)NC1=O)C2=O (racemic) [Base form B]
II = Nc1cccc2c1CN(C1CCC(=O)NC1=O)C2=O (centres unmarked) [DMSO solvate]
Look at I and II . Which one has the lower recorded Solubility number? Lab note: record the label of whichever item you select.
I
